System: HSC-39 (Gastric Carcinoma)
ASSAY METHOD TEXT: combination Emax (second highest fraction inhibited in the dose matrix, 72 h); higher = more inhibition; extreme values may be limits of the assay
MEASUREMENT LABEL: combination Emax
Respond using a number only.

Quick note, combination Emax for N#Cc1cnc(Nc2cc(NC[C@H]3CNCCO3)c(C(F)(F)F)cn2)cn1 [SRA737] + C=CCn1c(=O)c2cnc(Nc3ccc(N4CCN(C)CC4)cc3)nc2n1-c1cccc(C(C)(C)O)n1 [AZD1775] (first compound max 10 µM, partner max 1 µM) landed at 1

Quick note, combination Emax for N#Cc1cnc(Nc2cc(NC[C@H]3CNCCO3)c(C(F)(F)F)cn2)cn1 [SRA737] + Nc1ccn([C@@H]2O[C@H](CO)[C@@H](O)C2(F)F)c(=O)n1 [Gemcitabine] (first compound max 10 µM, 7x7, partner max 0.3 µM) landed at 1

====

Tested on: LXF-289 (Lung Adenocarcinoma)
ASSAY METHOD TEXT: Bliss excess, mean over the matrix (fraction); higher = more synergy
MEASUREMENT LABEL: Bliss excess
Respond using a number only.

Quick note, Bliss excess for CN(CCO)CC[C@H](CSc1ccccc1)Nc1ccc(S(=O)(=O)NC(=O)c2ccc(N3CCC([C@@H](O)c4ccccc4-c4ccc(Cl)cc4)CC3)cc2)cc1S(=O)(=O)C(F)(F)F [AZD4320] + C[C@@H]1COCCN1C2=NC(=NC(=C2)C3(CC3)[S@](=N)(=O)C)C4=C5C=CNC5=NC=C4 [AZD6738] (first compound max 1 µM, 7x7, partner max 10 µM) landed at 0.0029

Quick note, Bliss excess for COc1nnc2ccc(N3CCC(c4ccc(OCCN5CCN(C)C(=O)[C@H]5C)cc4)CC3)nn12 [AZD5153] + CC1(C)CCC(CN2CCN(c3ccc(C(=O)NS(=O)(=O)c4ccc(NCC5CCOCC5)c([N+](=O)[O-])c4)c(Oc4cnc5[nH]ccc5c4)c3)CC2)=C(c2ccc(Cl)cc2)C1 [Venetoclax] (first compound max 1 µM, 7x7, partner max 1 µM) landed at -0.009

Quick note, Bliss excess for Cc1cc2ncnn2cc1Nc1ncc2c(n1)n(C1CCOCC1)c(=O)n2C [AZD7648] + O=C(c1cc(Cc2n[nH]c(=O)c3ccccc23)ccc1F)N1CCN(C(=O)C2CC2)CC1 [Olaparib] (first compound max 10 µM, 7x7, partner max 10 µM) landed at -0.0504

Quick note, Bliss excess for Cc1cc2ncnn2cc1Nc1ncc2c(n1)n(C1CCOCC1)c(=O)n2C [AZD7648] + C=CCn1c(=O)c2cnc(Nc3ccc(N4CCN(C)CC4)cc3)nc2n1-c1cccc(C(C)(C)O)n1 [AZD1775] (first compound max 10 µM, partner max 1 µM) landed at -0.0396

Quick note, Bliss excess for CC(=O)c1c(C)c2cnc(Nc3ccc(N4CCNCC4)cn3)nc2n(C2CCCC2)c1=O [Palbociclib] + CC1(C)CCC(CN2CCN(c3ccc(C(=O)NS(=O)(=O)c4ccc(NCC5CCOCC5)c([N+](=O)[O-])c4)c(Oc4cnc5[nH]ccc5c4)c3)CC2)=C(c2ccc(Cl)cc2)C1 [Venetoclax] (first compound max 10 µM, 7x7, partner max 1 µM) landed at -0.0189

Quick note, Bliss excess for CS(=O)(=O)CCNCc1ccc(-c2ccc3ncnc(Nc4ccc(OCc5cccc(F)c5)c(Cl)c4)c3c2)o1 [Lapatinib] + C[C@@H](Oc1cc(-c2cnn(C3CCNCC3)c2)cnc1N)c1c(Cl)ccc(F)c1Cl [Crizotinib] (first compound max 10 µM, 7x7, partner max 10 µM) landed at -0.0848

Quick note, Bliss excess for NC1(C(=O)N[C@@H](CCO)c2ccc(Cl)cc2)CCN(c2ncnc3[nH]ccc23)CC1 [Capivasertib] + CC(C)n1c(=O)n(C)c2cnc3cc(F)c(-c4ccc(OCCCN5CCCCC5)nc4)cc3c21 [AZD1390] (first compound max 10 µM, 7x7, partner max 0.3 µM) landed at -0.0825

====

Provide the reported combination Emax of each item.
System: A2058 (Melanoma)
ASSAY METHOD TEXT: combination Emax (second highest fraction inhibited in the dose matrix, 72 h); higher = more inhibition; extreme values may be limits of the assay
Respond using a number only.

# Cn1cnc2c(F)c(Nc3ccc(Br)cc3Cl)c(C(=O)NOCCO)cc21 [Selumetinib] + C[C@@H]1COCCN1C2=NC(=NC(=C2)C3(CC3)[S@](=N)(=O)C)C4=C5C=CNC5=NC=C4 [AZD6738] (first compound max 10 µM, 7x7, partner max 10 µM) with A2058 (Melanoma): combination Emax is 0.83

# COc1cccc(OCCCN)c1-c1cc(Nc2cnc(C#N)cn2)n[nH]1 [Prexasertib] + O=C(c1cc(Cc2n[nH]c(=O)c3ccccc23)ccc1F)N1CCN(C(=O)C2CC2)CC1 [Olaparib] (first compound max 1 µM, 7x7, partner max 10 µM) with A2058 (Melanoma): combination Emax is 0.508

# COc1nnc2ccc(N3CCC(c4ccc(OCCN5CCN(C)C(=O)[C@H]5C)cc4)CC3)nn12 [AZD5153] + C[C@@H]1COCCN1C2=NC(=NC(=C2)C3(CC3)[S@](=N)(=O)C)C4=C5C=CNC5=NC=C4 [AZD6738] (first compound max 1 µM, 7x7, partner max 10 µM) with A2058 (Melanoma): combination Emax is 0.908

# CC1(C)CCC(CN2CCN(c3ccc(C(=O)NS(=O)(=O)c4ccc(NCC5CCOCC5)c([N+](=O)[O-])c4)c(Oc4cnc5[nH]ccc5c4)c3)CC2)=C(c2ccc(Cl)cc2)C1 [Venetoclax] + Cn1cnc2c(F)c(Nc3ccc(Br)cc3Cl)c(C(=O)NOCCO)cc21 [Selumetinib] (first compound max 1 µM, 7x7, partner max 3 µM) with A2058 (Melanoma): combination Emax is 0.493

====

Provide the reported Bliss excess of each item.
System: HEC-1 (Endometrial Carcinoma)
ASSAY METHOD TEXT: Bliss excess, mean over the matrix (fraction); higher = more synergy
Respond using a number only.

# C=CCn1c(=O)c2cnc(Nc3ccc(N4CCN(C)CC4)cc3)nc2n1-c1cccc(C(C)(C)O)n1 [AZD1775] + C1CN(CCC1(C(=O)N[C@@H](CCO)C2=CC=C(C=C2)Cl)N)C3=NC=NC4=C3C=CN4 [Capivasertib] (first compound max 3 µM, partner max 3 µM) with HEC-1 (Endometrial Carcinoma): Bliss excess is -0.0424

# CN(CCO)CC[C@H](CSc1ccccc1)Nc1ccc(S(=O)(=O)NC(=O)c2ccc(N3CCC([C@@H](O)c4ccccc4-c4ccc(Cl)cc4)CC3)cc2)cc1S(=O)(=O)C(F)(F)F [AZD4320] + CN(C)CCCOc1ccc(-c2ccc3ncc4c(c3c2)n(C2CCOCC2)c(=O)n4C)cn1 [AZD0156] (first compound max 1 µM, 7x7, partner max 1 µM) with HEC-1 (Endometrial Carcinoma): Bliss excess is -0.0414

# Cn1cnc2c(F)c(Nc3ccc(Br)cc3Cl)c(C(=O)NOCCO)cc21 [Selumetinib] + CC(C)n1c(=O)n(C)c2cnc3cc(F)c(-c4ccc(OCCCN5CCCCC5)nc4)cc3c21 [AZD1390] (first compound max 10 µM, 7x7, partner max 0.3 µM) with HEC-1 (Endometrial Carcinoma): Bliss excess is -0.0412

====

Tested on: PSN1 (Pancreatic Carcinoma)
ASSAY METHOD TEXT: Bliss excess, mean over the matrix (fraction); higher = more synergy
Provide the reported Bliss excess of each item.
Respond using a number only.

Quick note, Bliss excess for O=C(c1cc(Cc2n[nH]c(=O)c3ccccc23)ccc1F)N1CCN(C(=O)C2CC2)CC1 [Olaparib] + Cc1c2c(nn1C)CSCc1cc(n(C)n1)CSc1cc(c3ccccc3c1)OCCCc1c(C(=O)O)n(C)c3c-2c(Cl)ccc13 [AZD5991] (first compound max 10 µM, 7x7, partner max 1 µM) landed at -0.0506

Quick note, Bliss excess for COc1nnc2ccc(N3CCC(c4ccc(OCCN5CCN(C)C(=O)[C@H]5C)cc4)CC3)nn12 [AZD5153] + Cn1cnc2c(F)c(Nc3ccc(Br)cc3Cl)c(C(=O)NOCCO)cc21 [Selumetinib] (first compound max 1 µM, 7x7, partner max 10 µM) landed at 0.0717

Quick note, Bliss excess for Cn1cnc2c(F)c(Nc3ccc(Br)cc3Cl)c(C(=O)NOCCO)cc21 [Selumetinib] + C=CCn1c(=O)c2cnc(Nc3ccc(N4CCN(C)CC4)cc3)nc2n1-c1cccc(C(C)(C)O)n1 [AZD1775] (first compound max 10 µM, partner max 1 µM) landed at -0.0321

Quick note, Bliss excess for C=CCn1c(=O)c2cnc(Nc3ccc(N4CCN(C)CC4)cc3)nc2n1-c1cccc(C(C)(C)O)n1 [AZD1775] + C[C@@H]1COCCN1C2=NC(=NC(=C2)C3(CC3)[S@](=N)(=O)C)C4=C5C=CNC5=NC=C4 [AZD6738] (first compound max 1 µM, partner max 10 µM) landed at -0.0188

Quick note, Bliss excess for CC(=O)Nc1cccc(-n2c(=O)n(C3CC3)c(=O)c3c(Nc4ccc(I)cc4F)n(C)c(=O)c(C)c32)c1 [Trametinib] + Cc1nc(-c2cn3c(n2)-c2ccc(-c4cnn(C(C)(C)C(N)=O)c4)cc2OCC3)n(C(C)C)n1 [Taselisib] (first compound max 1 µM, 7x7, partner max 10 µM) landed at 0.0665

Quick note, Bliss excess for Cc1cc2ncnn2cc1Nc1ncc2c(n1)n(C1CCOCC1)c(=O)n2C [AZD7648] + O=C(c1cc(Cc2n[nH]c(=O)c3ccccc23)ccc1F)N1CCN(C(=O)C2CC2)CC1 [Olaparib] (first compound max 10 µM, 7x7, partner max 10 µM) landed at -0.0315

Quick note, Bliss excess for CN(CCO)CC[C@H](CSc1ccccc1)Nc1ccc(S(=O)(=O)NC(=O)c2ccc(N3CCC([C@@H](O)c4ccccc4-c4ccc(Cl)cc4)CC3)cc2)cc1S(=O)(=O)C(F)(F)F [AZD4320] + Cc1cc2ncnn2cc1Nc1ncc2c(n1)n(C1CCOCC1)c(=O)n2C [AZD7648] (first compound max 1 µM, 7x7, partner max 10 µM) landed at -0.0361

Quick note, Bliss excess for C[C@@H](Oc1cc(-c2cnn(C3CCNCC3)c2)cnc1N)c1c(Cl)ccc(F)c1Cl [Crizotinib] + Cn1cnc2c(F)c(Nc3ccc(Br)cc3Cl)c(C(=O)NOCCO)cc21 [Selumetinib] (first compound max 10 µM, 7x7, partner max 10 µM) landed at 0.0373

Quick note, Bliss excess for CC1(C)CCC(CN2CCN(c3ccc(C(=O)NS(=O)(=O)c4ccc(NCC5CCOCC5)c([N+](=O)[O-])c4)c(Oc4cnc5[nH]ccc5c4)c3)CC2)=C(c2ccc(Cl)cc2)C1 [Venetoclax] + C=CCn1c(=O)c2cnc(Nc3ccc(N4CCN(C)CC4)cc3)nc2n1-c1cccc(C(C)(C)O)n1 [AZD1775] (first compound max 1 µM, partner max 1 µM) landed at -0.0553

Quick note, Bliss excess for COc1cc2c(cc1OCCCCCOc1cc3c(cc1OC)C(=O)N1C=C(C)C[C@H]1C=N3)N=C[C@@H]1CC(C)=CN1C2=O [SG3199] + O=C(c1cc(Cc2n[nH]c(=O)c3ccccc23)ccc1F)N1CCN(C(=O)C2CC2)CC1 [Olaparib] (first compound max 0.001 µM, 7x7, partner max 10 µM) landed at -0.0371

Quick note, Bliss excess for CCc1c2c(nc3ccc(O)cc13)-c1cc3c(c(=O)n1C2)COC(=O)[C@]3(O)CC [SN-38] + O=C(c1cc(Cc2n[nH]c(=O)c3ccccc23)ccc1F)N1CCN(C(=O)C2CC2)CC1 [Olaparib] (first compound max 0.3 µM, 7x7, partner max 10 µM) landed at 0.0329

Quick note, Bliss excess for CN(CCO)CC[C@H](CSc1ccccc1)Nc1ccc(S(=O)(=O)NC(=O)c2ccc(N3CCC([C@@H](O)c4ccccc4-c4ccc(Cl)cc4)CC3)cc2)cc1S(=O)(=O)C(F)(F)F [AZD4320] + C=CCn1c(=O)c2cnc(Nc3ccc(N4CCN(C)CC4)cc3)nc2n1-c1cccc(C(C)(C)O)n1 [AZD1775] (first compound max 1 µM, partner max 1 µM) landed at -0.0112

Quick note, Bliss excess for COc1cccc(OCCCN)c1-c1cc(Nc2cnc(C#N)cn2)n[nH]1 [Prexasertib] + C[C@@H]1COCCN1C2=NC(=NC(=C2)C3(CC3)[S@](=N)(=O)C)C4=C5C=CNC5=NC=C4 [AZD6738] (first compound max 1 µM, 7x7, partner max 10 µM) landed at 0.0334

Quick note, Bliss excess for C[C@@H](Oc1cc(-c2cnn(C3CCNCC3)c2)cnc1N)c1c(Cl)ccc(F)c1Cl [Crizotinib] + CC1=C(C(=CC=C1)Cl)NC(=O)C2=CN=C(S2)NC3=CC(=NC(=N3)C)N4CCN(CC4)CCO [Dasatinib] (first compound max 10 µM, 7x7, partner max 2 µM) landed at -0.0469

Origin of measurements: the supplement of paper PMC11061612
